meta.source: patent EP1375483A1

System: cucumber powdery mildew
Experiment: Test of control effect on cucumber powdery mildew (Test Example 2)
Type: in vivo
Conditions: wettable powder 100 mg/l, 100 liters/10 a, sprinkled on cucumbers (Sagamihanpakufushinari) before inoculation; examined 9th to 14th day after inoculation
Reported metric: Control Value (%)
Enter your answer as a number in %; do not include the unit.

These solved cases illustrate the format of a correct answer.
{"Compound": "COc1cccc(CC(C)CN(C)Cc2ccc(Cl)nc2)c1 (stereo not shown)", "Units": "%", "Recorded result": 0}
{"Compound": "CC(Cc1ccc2c(c1)OC(F)(F)O2)CN(C)Cc1ccc(Cl)nc1 (stereo not shown)", "Units": "%", "Recorded result": 100}
{"Compound": "CC(Cc1ccc(F)c(OC(F)(F)F)c1)CN(C)Cc1ccc(Cl)nc1 (stereo not shown)", "Units": "%", "Recorded result": 100}

Quick check: Control Value of CC(Cc1ccc(C(F)(F)F)c(F)c1F)CN(C)Cc1ccc(Cl)nc1 (stereo not shown) ? 100
